# System: Aspergillus fumigatus
# ASSAY_SUMMARY: In vitro minimum inhibitory concentration of compound was determined against Aspergillus fumigatus after 48 hr
# Assay type: functional
OBSERVATION_TYPE: MIC (µM)
Express the result in µM but write the number alone.

Record CC1C=C(c2ccc(F)cc2)C(=O)O1 (centres undefined) : what is its MIC with Aspergillus fumigatus?
125

***
Record CC(=O)N1CCN(c2ccc(OC[C@H]3CO[C@](Cn4ccnc4)(c4ccc(Cl)cc4Cl)O3)cc2)CC1 : what is its MIC with Aspergillus fumigatus?
15.6
